Tested on: HCT-15 (Colorectal Carcinoma)
Experimental details: combination Emax (second highest fraction inhibited in the dose matrix, 72 h); higher = more inhibition; extreme values may be limits of the assay
Field: combination Emax. Provide a value for each of the compounds that follow.
Give bare numbers.

Compound: COc1cccc(OCCCN)c1-c1cc(Nc2cnc(C#N)cn2)n[nH]1 [Prexasertib] + C[C@@H]1COCCN1C2=NC(=NC(=C2)C3(CC3)[S@](=N)(=O)C)C4=C5C=CNC5=NC=C4 [AZD6738] (first compound max 1 µM, 7x7, partner max 10 µM)
combination Emax: 0.95
//
Compound: COc1cccc(OCCCN)c1-c1cc(Nc2cnc(C#N)cn2)n[nH]1 [Prexasertib] + CN(C)CCCOc1ccc(-c2ccc3ncc4c(c3c2)n(C2CCOCC2)c(=O)n4C)cn1 [AZD0156] (first compound max 1 µM, 7x7, partner max 1 µM)
combination Emax: 0.92

Item under review: CN(CCO)CC[C@H](CSc1ccccc1)Nc1ccc(S(=O)(=O)NC(=O)c2ccc(N3CCC([C@@H](O)c4ccccc4-c4ccc(Cl)cc4)CC3)cc2)cc1S(=O)(=O)C(F)(F)F [AZD4320] + CCN(CCO)CCCOc1ccc2c(Nc3cc(CC(=O)Nc4cccc(F)c4)[nH]n3)ncnc2c1 [AZD2811] (first compound max 1 µM, 7x7, partner max 1 µM) . Reported combination Emax?
0.135

---

Tested on: COLO-680N (Esophageal Squamous Cell Carcinoma);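 note: after 72 h of two-drug dosing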
Experimental details: Bliss excess, mean over the matrix (fraction); higher = more synergy
Field: Bliss excess. Provide a value for each of the compounds that follow.
Answers are plain numbers.

Below: 2 compounds and their reported Bliss excess.
Compound: O=C(c1cc(Cc2n[nH]c(=O)c3ccccc23)ccc1F)N1CCN(C(=O)C2CC2)CC1 [Olaparib] + COc1nnc2ccc(N3CCC(c4ccc(OCCN5CCN(C)C(=O)[C@H]5C)cc4)CC3)nn12 [AZD5153] (first compound max 10 µM, 7x7, partner max 1 µM)
Bliss excess: -0.0446
--
Compound: CC1(C)CCC(CN2CCN(c3ccc(C(=O)NS(=O)(=O)c4ccc(NCC5CCOCC5)c([N+](=O)[O-])c4)c(Oc4cnc5[nH]ccc5c4)c3)CC2)=C(c2ccc(Cl)cc2)C1 [Venetoclax] + CCN(CCO)CCCOc1ccc2c(Nc3cc(CC(=O)Nc4cccc(F)c4)[nH]n3)ncnc2c1 [AZD2811] (first compound max 1 µM, 7x7, partner max 1 µM)
Bliss excess: -0.0166

Item under review: Cc1c2c(nn1C)CSCc1cc(n(C)n1)CSc1cc(c3ccccc3c1)OCCCc1c(C(=O)O)n(C)c3c-2c(Cl)ccc13 [AZD5991] + C[C@@H](Nc1cc(F)cc(F)c1)c1cc(C(=O)N(C)C)cc2c(=O)cc(N3CCOCC3)oc12 [AZD8186] (first compound max 1 µM, 7x7, partner max 3 µM) . Reported Bliss excess?
0.0001

---

Field: combination Emax. Provide a value for each of the compounds that follow.
Tested on: CAL-120 (Breast Carcinoma)
Experimental details: combination Emax (second highest fraction inhibited in the dose matrix, 72 h); higher = more inhibition; extreme values may be limits of the assay
Give bare numbers.

Compound: Cc1nc(Nc2ncc(C(=O)Nc3c(C)cccc3Cl)s2)cc(N2CCN(CCO)CC2)n1 [Dasatinib] + CC(=O)Nc1cccc(-n2c(=O)n(C3CC3)c(=O)c3c(Nc4ccc(I)cc4F)n(C)c(=O)c(C)c32)c1 [Trametinib] (first compound max 2 µM, 7x7, partner max 1 µM)
System tested: CAL-120 (Breast Carcinoma)
combination Emax: 0.525
//
Compound: COc1cccc(OCCCN)c1-c1cc(Nc2cnc(C#N)cn2)n[nH]1 [Prexasertib] + Cc1cc2ncnn2cc1Nc1ncc2c(n1)n(C1CCOCC1)c(=O)n2C [AZD7648] (first compound max 1 µM, 7x7, partner max 10 µM)
System tested: CAL-120 (Breast Carcinoma)
combination Emax: 0.512
//
Compound: CN(C)CCCOc1ccc(-c2ccc3ncc4c(c3c2)n(C2CCOCC2)c(=O)n4C)cn1 [AZD0156] + C[C@@H]1COCCN1C2=NC(=NC(=C2)C3(CC3)[S@](=N)(=O)C)C4=C5C=CNC5=NC=C4 [AZD6738] (first compound max 1 µM, 7x7, partner max 10 µM)
System tested: CAL-120 (Breast Carcinoma)
combination Emax: 0.437

Item under review: COc1cc2ncnc(Nc3ccc(F)c(Cl)c3)c2cc1OCCCN1CCOCC1 [Gefitinib] + CC(C)n1c(=O)n(C)c2cnc3cc(F)c(-c4ccc(OCCCN5CCCCC5)nc4)cc3c21 [AZD1390] (first compound max 10 µM, 7x7, partner max 0.3 µM) . Reported combination Emax?
0.14

Data provenance is the supplement of paper PMC11061612.
